biological target: human recombinant MC1R (CHO-K1 stable cell line, GenScript) (human, UniProt Q01726 1-317); experiment: cell-based or functional assay
Sequence (Q01726 whole entry): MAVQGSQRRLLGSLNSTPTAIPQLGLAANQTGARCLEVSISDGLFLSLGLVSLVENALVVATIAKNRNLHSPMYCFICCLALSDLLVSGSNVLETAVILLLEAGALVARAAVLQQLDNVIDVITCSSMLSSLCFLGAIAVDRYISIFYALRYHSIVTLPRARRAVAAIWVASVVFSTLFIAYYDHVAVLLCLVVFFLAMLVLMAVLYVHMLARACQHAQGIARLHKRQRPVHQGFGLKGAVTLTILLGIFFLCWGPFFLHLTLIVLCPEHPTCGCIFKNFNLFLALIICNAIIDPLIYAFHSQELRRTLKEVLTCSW
Starred links: 1 amine or outer side, 2 acyl side, 3 side chain; linkers in the order of their positions; H or OH if unused. Positions of bridges follow the written chain, without caps; N, C: chain ends. Non-standard residues stand in square brackets, D forms with d. *: point of attachment. MoPA = (3-methoxyphenyl)acetic acid (N-terminal cap), COc1cccc(CC(=O)*)c1; Hgln = homoglutamine, NC(=O)CCC[C@H](N[*:1])C(=O)[*:2]; Benzoyl(3,5-(OH)2) = O=C(c1cc(O)cc(O)c1)*; NMeW = CN[C@@H](Cc1c[nH]c2ccccc12)C(=O)O; Lys(N3) = [N-]=[N+]=NCCCC[C@H](N)C(=O)O; dPhe(4-F) = N[C@H](Cc1ccc(F)cc1)C(=O)O; NMeH = CN[C@@H](Cc1c[nH]cn1)C(=O)O; hArg = N=C(N)NCCCC[C@H](N)C(=O)O; Nle = CCCC[C@H](N)C(=O)O; Pra = C#CC[C@H](N)C(=O)O
PROPERTY_LABEL: MC1R IC50 (pM)

The cases that follow already have their MC1R IC50 on record.
Ac-[Nle][Lys(N3)]H[dPhe(4-F)]RW[Pra]-NH2 (triazole 2-7) [KR-049]; 19
{MoPA-MoPA}-[Nle][Lys(N3)]H[dF]RW[Pra]K-NH2 (triazole 2-7; not fully specified; printed as MoPA-MoPA-Nle-[Lys(N3)-His-DPhe-Arg-Trp-Pra]-Lys-NH2) [KR-063]; 50
Ac-[Nle][Lys(N3)][NMeH][dF]R[NMeW][Pra]-NH2 (triazole 2-7) [KR-051]; 43
Ac-[Nle][Lys(N3)]H[dF][hArg]W[Pra]K-NH2 (triazole 2-7; not fully specified; printed as Ac-Nle-[Lys(N3)-His-DPhe-HArg-Trp-Pra]-Lys-NH2) [KR-054]; 93
Ac-SYSMEHFRWGK-NH2 [KR-006]; 110

[P] Ac-[Nle][Pra]H[dF]RW[Lys(N3)]K-NH2 (triazole 2-7; not fully specified; printed as Ac-Nle-[Pra-His-DPhe-Arg-Trp-Lys(N3)]-Lys-NH2) [KR-067]
[Q] Ac-[Nle][Lys(N3)]HFRW[Pra]-NH2 (triazole 2-7) [KR-008]
[R] {Benzoyl(3,5-(OH)2)}-[Nle][Lys(N3)]H[dF]RW[Pra]K-NH2 (triazole 2-7; not fully specified; printed as HyBA-Nle-[Lys(N3)-His-DPhe-Arg-Trp-Pra]-Lys-NH2) [KR-053]
[S] {Benzoyl(3,5-(OH)2)}-[Nle][Lys(N3)]H[dPhe(4-F)]RW[Pra][Hgln]-NH2 (triazole 2-7; not fully specified; printed as HyBA-Nle-[Lys(N3)-His-Dphe(4-F)-Arg-Trp-Pra]-Hgln-NH2) [KR-071]
[ask] Rank the 4 binders: largest MC1R IC50 first, smallest last. Give the labels in the order specified.
[reply] Q, P, R, S
